- measurement_description: Solubility in water of the cyclodextrin
- Assay type: physicochemical
- setup_conditions: 20°C, read-out: solubilité dans l'eau
measured_parameter: solubility (mg/mL)
Report the value in mg/mL with no unit label.

In: Note down solubility recorded for NC[C@H]1O[C@@H]2O[C@H]3[C@H](O)[C@@H](O)[C@@H](O[C@H]4[C@H](O)[C@@H](O)[C@@H](O[C@H]5[C@H](O)[C@@H](O)[C@@H](O[C@H]6[C@H](O)[C@@H](O)[C@@H](O[C@H]7[C@H](O)[C@@H](O)[C@@H](O[C@H]8[C@H](O)[C@@H](O)[C@@H](O[C@H]1[C@H](O)[C@H]2O)O[C@@H]8CO)O[C@@H]7CO)O[C@@H]6CO)O[C@@H]5CO)O[C@@H]4CO)O[C@@H]3CO
Out: 200

* * *

- measurement_description: physchem
- Format: physicochemical
- setup_conditions: phosphate buffer, pH 7.4, aqueous buffer; Tampon Phosphate 7,4, without cyclodextrin, 25°C; read-out: solubilité de la carbamazépine
measured_parameter: solubility

In: Note down solubility recorded for NC(=O)N1c2ccccc2C=Cc2ccccc21
Out: < 70 µM
